From: PubChem BioAssay (NCI)

system: CAKI-1 renal; test: NCI-60 one-dose screen, 48 h (100 = growth as untreated, 0 = no growth, -100 = all killed); conditions: 10 µM unless noted
About 83,000 compounds went through this panel and 20% of them were active in at least one assay; those are over-represented in the sample as a whole.
readout type: growth (%)

• CC1=C2[C@@H](CC1)[C@]1(C)O[C@@](C(C)C)(C[C@H]1OC(=O)CO)[C@H]2OC(=O)C1CC1c1ccccc1 (stereo not given in full) = 74.1
• Cc1ccc(NC(=O)N/C(N)=N/c2nc(=O)c3ccccc3s2)cc1 = 86.9
• CCCCCCCCn1ccc2cc(NC(=O)CN3CCN(c4nc(C)cc(N5CCCCC5)n4)CC3)ccc21 = 86.8
• COc1c(O)c(O)cc2c3c(oc12)CC(c1ccc2c(c1)OCO2)CC3=O (stereo not given) = 72
• N=c1ccccn1CCO = 106
• OCc1cc(CN2CCCCC2)c(O)c2ncccc12 = 13
• CN1CCN(C(=O)OCc2nc3c(N4CCOCC4)nc(Cl)nc3n2C)CC1 = -75.2
• CSc1nnc(-c2cc3c([nH]c4ccccc43)c(-c3cccc(O)c3)n2)n1-c1ccc(C)cc1 = 48.3
• CCC(=O)Oc1cc(Cl)c(Cl)cc1Cl = 99.2
• Cc1ccc(Nc2nc(-c3cc(O)c(C)c(C)c3O)cs2)cc1 = 92.7
